Please go through the items and note down their pIC50.
tested target: human integrin αVβ8 (Homo sapiens, UniProt P06756+P26012)
Sequence (P06756 31-992 limits assumed): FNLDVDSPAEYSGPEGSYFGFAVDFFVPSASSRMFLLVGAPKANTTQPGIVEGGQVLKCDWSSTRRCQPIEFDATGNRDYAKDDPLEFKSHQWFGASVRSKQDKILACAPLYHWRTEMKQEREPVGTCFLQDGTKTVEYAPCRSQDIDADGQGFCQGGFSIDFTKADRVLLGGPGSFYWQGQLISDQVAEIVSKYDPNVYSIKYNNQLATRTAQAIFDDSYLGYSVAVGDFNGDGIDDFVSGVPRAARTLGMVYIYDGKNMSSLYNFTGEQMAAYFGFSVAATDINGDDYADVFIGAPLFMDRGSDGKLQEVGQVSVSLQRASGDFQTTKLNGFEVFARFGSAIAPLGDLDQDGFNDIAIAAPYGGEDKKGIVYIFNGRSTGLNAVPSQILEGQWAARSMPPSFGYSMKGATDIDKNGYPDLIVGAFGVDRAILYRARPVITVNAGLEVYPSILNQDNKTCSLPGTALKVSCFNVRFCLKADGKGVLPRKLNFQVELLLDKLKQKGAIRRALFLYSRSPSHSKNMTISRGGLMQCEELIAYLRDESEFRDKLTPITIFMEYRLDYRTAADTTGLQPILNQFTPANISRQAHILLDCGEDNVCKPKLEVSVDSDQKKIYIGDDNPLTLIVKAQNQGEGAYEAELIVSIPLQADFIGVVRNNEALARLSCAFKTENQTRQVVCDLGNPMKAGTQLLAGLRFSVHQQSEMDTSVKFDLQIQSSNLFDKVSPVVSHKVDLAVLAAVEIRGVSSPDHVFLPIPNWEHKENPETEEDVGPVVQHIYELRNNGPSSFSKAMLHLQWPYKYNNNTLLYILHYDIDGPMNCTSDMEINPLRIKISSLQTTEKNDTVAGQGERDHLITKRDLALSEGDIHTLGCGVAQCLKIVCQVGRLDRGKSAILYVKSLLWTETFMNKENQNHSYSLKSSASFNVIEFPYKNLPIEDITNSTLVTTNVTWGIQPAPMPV
Sequence (P26012 43-684 limits assumed): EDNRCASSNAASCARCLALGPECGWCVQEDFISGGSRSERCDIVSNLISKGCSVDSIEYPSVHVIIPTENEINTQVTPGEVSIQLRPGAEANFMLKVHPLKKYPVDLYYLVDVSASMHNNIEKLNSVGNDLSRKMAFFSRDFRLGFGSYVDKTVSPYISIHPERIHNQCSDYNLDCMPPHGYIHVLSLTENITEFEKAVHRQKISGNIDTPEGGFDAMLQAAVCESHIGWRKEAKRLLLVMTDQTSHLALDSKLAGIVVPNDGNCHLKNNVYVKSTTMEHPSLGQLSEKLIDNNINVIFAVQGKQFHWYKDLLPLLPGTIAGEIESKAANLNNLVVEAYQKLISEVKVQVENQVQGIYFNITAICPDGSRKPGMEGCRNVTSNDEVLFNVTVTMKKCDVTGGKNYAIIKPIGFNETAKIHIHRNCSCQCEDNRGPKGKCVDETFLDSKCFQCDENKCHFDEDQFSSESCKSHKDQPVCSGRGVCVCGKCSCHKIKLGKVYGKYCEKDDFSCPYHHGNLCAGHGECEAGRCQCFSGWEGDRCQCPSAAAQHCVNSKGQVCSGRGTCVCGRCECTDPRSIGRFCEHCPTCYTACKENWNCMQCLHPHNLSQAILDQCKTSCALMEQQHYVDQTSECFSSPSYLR
assay name: AlphaScreen proximity-based integrin binding assay with TGF-b1 LAP
test settings: values given as ranges
pIC50: −log10 of the molar value.

[
  {
    "chemical string": "COc1cccc(=O)n1C1(C(=O)N[C@@H](CCOCCCCc2ccc3c(n2)NCCC3)C(=O)O)CC1",
    "tested target": "human integrin αVβ8 (Homo sapiens, UniProt P06756+P26012)",
    "pIC50": "6.82 to 7.30"
  },
  {
    "chemical string": "COc1ncc(F)cc1C1(C(=O)N[C@@H](CCOCCCCc2ccc3c(n2)NCCC3)C(=O)O)CC1",
    "tested target": "human integrin αVβ8 (Homo sapiens, UniProt P06756+P26012)",
    "pIC50": "> 7.30"
  }
]

For every item in the list below, what is its measured pIC50?
1. O=C(O)[C@H](CCOCCCCc1ccc2c(n1)NCCC2)NC(=O)C1(n2c(F)cccc2=O)CC1
2. COc1cncc(Cl)c1C1(C(=O)N[C@@H](CCOCCCCc2ccc3c(n2)NCCC3)C(=O)O)CC1
3. COc1ncnc(C)c1C1(C(=O)N[C@@H](CCOCCCCc2ccc3c(n2)NCCC3)C(=O)O)CC1
4. COc1nccnc1C1(C(=O)N[C@@H](CCOCCCCc2ccc3c(n2)NCCC3)C(=O)O)CC1
5. Cc1cc(Cl)n(C2(C(=O)N[C@@H](CCOCCCCc3ccc4c(n3)NCCC4)C(=O)O)CC2)n1
6. COc1cccc(C2(C(=O)N[C@@H](CCOCCCCc3ccc4c(n3)NCCC4)C(=O)O)CCOCC2)c1

**A:**
1: > 7.30; 2: > 7.30; 3: > 7.30; 4: 6.82 to 7.30; 5: > 7.30; 6: > 7.30

###

tested target: human integrin αVβ8 (Homo sapiens, UniProt P06756+P26012)
assay name: AlphaScreen proximity-based integrin binding assay with TGF-b1 LAP
test settings: values given as ranges
pIC50: −log10 of the molar value.
Record form. Attribute: pIC50. Fill in for each entry.

Field: example entries. Status: answers known.
[
  {
    "molecule": "O=C(O)[C@H](CCOCCCCc1ccc2c(n1)NCCC2)NC(=O)C1(c2cn[nH]c2Cl)CC1 [Compound 74]",
    "pIC50": "> 7.30"
  },
  {
    "molecule": "O=C(O)[C@H](CCOCCCCc1ccc2c(n1)NCCC2)NC(=O)C1(c2ncsc2Cl)CC1 [Compound 82]",
    "pIC50": "> 7.30"
  },
  {
    "molecule": "O=C(N[C@@H](CCOCCCCc1ccc2c(n1)NCCC2)C(=O)O)c1cnn(-c2ccccc2)c1 [Compound 98]",
    "pIC50": "6.30 to 6.60"
  }
]

Would you mind listing pIC50 for each of the following molecules?
1. C[C@H](C(=O)N[C@@H](CCOCCCCc1ccc2c(n1)NCCC2)C(=O)O)c1ccccc1 [Compound 3]
2. O=C(O)[C@H](CCOCCCCc1ccc2c(n1)NCCC2)NC(=O)C1(n2cncc2C(F)F)CC1 [Compound 64]
3. O=C(O)[C@H](CCOCCCCc1ccc2c(n1)NCCC2)NC(=O)C1(c2[nH]ncc2Cl)CC1 [Compound 71]
4. Cc1ccccc1C1(C(=O)N[C@@H](CCOCCCCc2ccc3c(n2)NCCC3)C(=O)O)CC1 [Compound 17]
5. COc1ccc(F)c(F)c1C(C)(C)C(=O)N[C@@H](CCOCCCCc1ccc2c(n1)NCCC2)C(=O)O [Compound 4]

**A:**
["> 7.30", "6.82 to 7.30", "> 7.30", "> 7.30", "6.60 to 6.82"]

# batch size: 8; output pIC50 per entry
1. N#Cc1cccc(F)c1C1(C(=O)N[C@@H](CCOCCCCc2ccc3c(n2)NCCC3)C(=O)O)CC1 [Compound 37]
2. O=C(O)[C@H](CCOCCCCc1ccc2c(n1)NCCC2)NC(=O)C1(n2c(Br)cccc2=O)CC1 [Compound 94]
3. O=C(O)[C@H](CCOCCCCc1ccc2c(n1)NCCC2)NC(=O)C1(c2c(Cl)cccc2Cl)CC1 [Compound 7]
4. O=C(O)[C@H](CCOCCCCc1ccc2c(n1)NCCC2)NC(=O)C1(c2ncccc2Cl)CC1 [Compound 15]
5. O=C(O)[C@H](CCOCCCCc1ccc2c(n1)NCCC2)NC(=O)C1(c2cccc(F)c2)CCOCC1 [Compound 88]
6. O=C(O)[C@H](CCOCCCCc1ccc2c(n1)NCCC2)NC(=O)C1(c2cccc(Cl)c2)CCOCC1 [Compound 89]
7. O=C(O)[C@H](CCOCCCCc1ccc2c(n1)NCCC2)NC(=O)C1(c2cncnc2)CC1 [Compound 22]
8. O=C(O)[C@H](CCOCCCCc1ccc2c(n1)NCCC2)NC(=O)C1(C(F)(F)F)CCCCC1 [Compound 84]

**A:**
["> 7.30", "> 7.30", "> 7.30", "> 7.30", "> 7.30", "> 7.30", "6.60 to 6.82", "> 7.30"]

Parameters: items (list). Returns: pIC50 for each item.
1. Cc1ncncc1C1(C(=O)N[C@@H](CCOCCCCc2ccc3c(n2)NCCC3)C(=O)O)CC1 [Compound 19]
2. O=C(N[C@@H](CCOCCCCc1ccc2c(n1)NCCC2)C(=O)O)c1ccnn1-c1ccccc1 [Compound 99]
3. O=C(O)[C@H](CCOCCCCc1ccc2c(n1)NCCC2)NC(=O)C1(c2ccccc2Cl)CC1 [Compound 6]
4. O=C(N[C@@H](CCOCCCCc1ccc2c(n1)NCCC2)C(=O)O)c1ccn(-c2ccccc2)n1 [Compound 97]
5. Cc1nc(C)c(C2(C(=O)N[C@@H](CCOCCCCc3ccc4c(n3)NCCC4)C(=O)O)CC2)c(Cl)n1 [Compound 60]
6. NC(=O)c1cccc(F)c1C1(C(=O)N[C@@H](CCOCCCCc2ccc3c(n2)NCCC3)C(=O)O)CC1 [Compound 95]
7. Cc1cnc(C2(C(=O)N[C@@H](CCOCCCCc3ccc4c(n3)NCCC4)C(=O)O)CC2)c(Cl)c1 [Compound 36]
8. CC(C)(C(=O)N[C@@H](CCOCCCCc1ccc2c(n1)NCCC2)C(=O)O)c1cc(F)cnc1Cl [Compound 23]

**A:**
1. > 7.30
2. 6.82 to 7.30
3. > 7.30
4. 6.30 to 6.60
5. > 7.30
6. 6.82 to 7.30
7. > 7.30
8. 6.82 to 7.30

I'm hoping you can list pIC50 for every molecule here, please.
1. COCc1cccnc1C1(C(=O)N[C@@H](CCOCCCCc2ccc3c(n2)NCCC3)C(=O)O)CC1 [Compound 53]
2. O=C(O)[C@H](CCOCCCCc1ccc2c(n1)NCCC2)NC(=O)C1(c2cncnc2C(F)(F)F)CC1 [Compound 48]
3. Cc1ncc(Cl)c(C2(C(=O)N[C@@H](CCOCCCCc3ccc4c(n3)NCCC4)C(=O)O)CC2)n1 [Compound 73]
4. O=C(O)[C@H](CCOCCCCc1ccc2c(n1)NCCC2)NC(=O)C1(c2c(Cl)cncc2Cl)CC1 [Compound 24]
5. O=C(O)[C@H](CCOCCCCc1ccc2c(n1)NCCC2)NC(=O)C1(c2nccnc2C(F)(F)F)CC1 [Compound 67]

**A:**
1. 6.82 to 7.30
2. > 7.30
3. > 7.30
4. > 7.30
5. > 7.30

**Q:** Would you mind telling me what pIC50 value was observed for O=C(O)[C@H](CCOCCCCc1ccc2c(n1)NCCC2)NC(=O)C1(c2ncccc2C(F)(F)F)CC1 [Compound 25] ?
**A:** > 7.30

###

tested target: human integrin αVβ1 (Homo sapiens, UniProt P05556+P06756)
Sequence (P06756 31-992 limits assumed): as the sequence (P06756 31-992 limits assumed) above
Sequence (P05556 21-728 limits assumed): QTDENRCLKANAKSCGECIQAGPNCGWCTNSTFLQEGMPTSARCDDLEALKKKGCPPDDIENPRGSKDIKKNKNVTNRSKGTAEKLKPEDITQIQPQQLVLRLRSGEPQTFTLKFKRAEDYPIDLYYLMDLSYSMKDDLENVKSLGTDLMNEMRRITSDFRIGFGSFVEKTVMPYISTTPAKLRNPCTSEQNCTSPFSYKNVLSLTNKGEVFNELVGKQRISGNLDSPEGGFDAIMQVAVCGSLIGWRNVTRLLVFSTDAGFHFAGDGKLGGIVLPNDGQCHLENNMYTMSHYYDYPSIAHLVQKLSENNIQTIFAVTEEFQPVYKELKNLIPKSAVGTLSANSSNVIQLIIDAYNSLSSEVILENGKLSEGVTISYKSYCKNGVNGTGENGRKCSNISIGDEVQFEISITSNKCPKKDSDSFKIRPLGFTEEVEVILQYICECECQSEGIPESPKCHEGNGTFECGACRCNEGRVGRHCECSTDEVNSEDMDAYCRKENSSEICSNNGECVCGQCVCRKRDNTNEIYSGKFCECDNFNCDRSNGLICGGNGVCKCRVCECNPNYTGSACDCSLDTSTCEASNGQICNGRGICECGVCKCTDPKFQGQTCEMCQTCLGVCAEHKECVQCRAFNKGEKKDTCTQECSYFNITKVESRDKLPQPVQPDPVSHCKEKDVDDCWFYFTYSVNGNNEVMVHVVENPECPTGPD
assay name: AlphaScreen proximity-based integrin binding assay with TGF-b1 LAP
test settings: values given as ranges
For each of the compounds below, state its IC50.

These solved cases illustrate the format of a correct answer.
[
  {
    "compound": "CC(C)(C(=O)N[C@@H](CCOCCCCc1ccc2c(n1)NCCC2)C(=O)O)c1ccccc1Cl [Compound 8]",
    "IC50": "< 50 nM"
  },
  {
    "compound": "O=C(O)[C@H](CCOCCCCc1ccc2c(n1)NCCC2)NC(=O)C1(c2ccc(F)cc2)CCOCC1 [Compound 85]",
    "IC50": "< 50 nM"
  }
]

Batch request: IC50 per item, same order as input.
1. O=C(O)[C@H](CCOCCCCc1ccc2c(n1)NCCC2)NC(=O)C1(c2cc(F)cnc2F)CC1 [Compound 21]
2. O=C(O)[C@H](CCOCCCCc1ccc2c(n1)NCCC2)NC(=O)C1(C(F)(F)F)CCCCC1 [Compound 84]

**A:**
1: < 50 nM; 2: < 50 nM

Value sought for every listed compound: IC50.
1. [2H]C1([2H])C([2H])([2H])C1(C(=O)N[C@@H](CCOCCCCc1ccc2c(n1)NCCC2)C(=O)O)c1c(C)ncnc1Cl [Compound 104]
2. CC(C)(C(=O)N[C@@H](CCOCCCCc1ccc2c(n1)NCCC2)C(=O)O)c1cc(F)cnc1Cl [Compound 23]
3. Cc1nccnc1C1(C(=O)N[C@@H](CCOCCCCc2ccc3c(n2)NCCC3)C(=O)O)CC1 [Compound 42]
4. COc1ncccc1C1(C(=O)N[C@@H](CCOCCCCc2ccc3c(n2)NCCC3)C(=O)O)CC1 [Compound 35]

**A:**
1. < 50 nM
2. < 50 nM
3. < 50 nM
4. 50 to 150 nM

Data provenance is patent US20240245682A1.
